recorded.endpoint: melting point

compound	recorded.endpoint	value
CC(=O)OC1CCC2C3CCC4=CC(=O)C=C(C)C4(C)C3CCC12C (stereo unspecified)	melting point	144 °C
CCc1nn(Cc2nnc(N)o2)c(CC)c1Oc1cc(Cl)cc(Cl)c1	melting point	226 to 228 °C
N#CC(Cc1c[nH]cn1)(c1ccc(Cl)cc1)c1ccc(Cl)cc1	melting point	152 to 153 °C
C[C@@H](NC(=O)c1[nH]c2ccc(Cl)cc2c1S(=O)(=O)c1ccccc1)c1ccccc1	melting point	149 °C
CC(C)(C)C(=O)Nc1ccc(Cl)cc1	melting point	149 to 150 °C
Nc1nc(=O)n(CCCCn2cncn2)cc1F	melting point	197 to 200 °C
COc1cc(N)c(Cl)cc1C(=O)OCC1CCN(CCCOc2ccc(F)cc2)CC1	melting point	140 °C
CCOC(=O)c1cc2cccc(N(C)S(=O)(=O)c3ccccc3OC)c2n1COC	melting point	124 to 125 °C
O=C(O)Cc1c(C(=O)O)c2cc(Oc3ccc(C(F)(F)F)cc3)ccc2n1-c1cccc(Cl)c1	melting point	236 to 238 °C
COc1cccc(NC(=O)C(C)(C)C)c1	melting point	126 °C
CC(C)(C)c1ccc(Cn2cc(C(=O)C(=O)O)c3cc(-c4ccc(Cl)cc4)ccc32)cc1	melting point	183 to 184 °C
